Tested on: SKVLB
Assay: Microculture tetrazolium assay
Type: cell-based
Conditions: IC50 ratio SKVLB/SKOV3
Counter-ions that a name gives are not always drawn.
Observation type: VLB/OV3

• C[C@@H]1O[C@@H](O[C@H]2O[C@H](c3ccccc3)CC3=C2C(=O)c2cc4ccccc4c(O)c2C3=O)C[C@H](N)[C@@H]1O [BCH-2012, hydrochloride] = 1.96
• C[C@@H]1O[C@@H](O[C@@H]2O[C@@H](C(=O)CO)CC3=C2C(=O)c2cc4ccccc4c(O)c2C3=O)C[C@H](NC(=O)C(F)(F)F)[C@@H]1O [BCH-1182] = 3.12
• CC(=O)[C@H]1CC2=C(C(=O)c3cc4ccccc4c(O)c3C2=O)[C@H](O[C@H]2C[C@H](O)[C@H](O)[C@H](C)O2)O1 [BCH-1123] = 0.92
• CCOC(=O)[C@@H]1CC2=C(C(=O)c3c(cc4ccccc4c3OC(C)=O)C2=O)[C@@H](O)O1 (relative stereo) [BCH-657] = 0.99
• CC(=O)C1CC2=C(C(=O)c3cc4ccccc4c(O)c3C2=O)C(O[C@H]2CC[C@H](NC(=O)C(F)(F)F)[C@H](C)O2)O1 (mixture of isomers) [BCH-1680] = 1.36
• CC[C@@H]1CC2=C(C(=O)c3cc4ccccc4c(O)c3C2=O)[C@@H](O[C@H]2C[C@H](O)[C@H](O)[C@H](C)O2)O1 [BCH-1630] = 2.6
• CC(=O)Oc1c2c(c(O)c3ccccc13)C(=O)C1=C(CC(C(C)=O)OC1)C2=O (stereo not drawn) [BCH-721] = 0.55
• CC[C@H]1CC2=C(C(=O)c3cc4ccccc4c(O)c3C2=O)[C@H](O[C@H]2C[C@H](O)[C@H](O)[C@H](C)O2)O1 [BCH-1629] = 2.8
• CC(=O)C1Cc2c(O)c3c(c(O)c2C(O[C@H]2C[C@H](N4CCOCC4)[C@H](O)[C@H](C)O2)O1)C(=O)c1ccccc1C3=O (mixture of isomers) [BCH-1191] = 3.57
• C=CC[C@@H]1CC2=C(C(=O)c3cc4ccccc4c(O)c3C2=O)[C@@H](O[C@H]2C[C@H](N)[C@H](O)[C@H](C)O2)O1 [BCH-2005, hydrochloride] = 1.07
• CC(=O)[C@@H]1CC2=C(C(=O)c3cc4ccccc4c(O)c3C2=O)[C@@H](O[C@H]2C[C@H](NC(=O)C(F)(F)F)[C@H](O)[C@H](C)O2)S1 [BCH-1641] = 1.63
• C[C@@H]1O[C@@H](O[C@H]2O[C@H](C#N)CC3=C2C(=O)c2cc4ccccc4c(O)c2C3=O)C[C@H](NC(=O)C(F)(F)F)[C@@H]1O [BCH-2007] = 6.44

# credit: patent US5593970A
